Value source: ChEMBL document CHEMBL3885861

Species on record: Rattus norvegicus
Assay: Open TG-GATES - Regimen: Single
Format: toxicity, organism-based, Sprague-Dawley
Set-up: regimen Single, gender Male, age 6 weeks
Conditions: in vivo, po, 0 mg/kg, 9 h, route gavage, dose level Control
observed_property: TERMINAL_BW (g)
Value expressed in g; do not type the unit.

If you can, please state the reported TERMINAL_BW value of CN(C)CCC=C1c2ccccc2COc2ccccc21 [DOXEPIN] .
195.7

If you can, please state the reported TERMINAL_BW value of O=NN(CCCl)C(=O)NC1CCCCC1 [LOMUSTINE] .
199.9

If you can, please state the reported TERMINAL_BW value of CC1=C(CC(=O)O)c2cc(F)ccc2/C1=C\c1ccc([S+](C)[O-])cc1 (stereo unspecified) .
198.3

***
If you can, please state the reported TERMINAL_BW value of ClC(Cl)(Cl)Cl [CARBON TETRACHLORIDE] .
201.8

If you can, please state the reported TERMINAL_BW value of CC(C)N(CCC(C(N)=O)(c1ccccc1)c1ccccn1)C(C)C (stereo unspecified) [DISOPYRAMIDE] .
204.9

If you can, please state the reported TERMINAL_BW value of CN(C)C(=N)N=C(N)N [METFORMIN] .
201

----------
Consider the following compounds and their measured KIDNEY_R readings.
Species on record: Rattus norvegicus
Assay: Open TG-GATES - Regimen: Daily Repeat
Type: toxicity, organism-based, Sprague-Dawley
Parameters: regimen Daily Repeat, gender Male, age 6 weeks
Details: in vivo, po, 0 mg/kg, […], tissue Kidney, route gavage, dose level Control, time 28 day

If you can, please state the reported KIDNEY_R value of CCc1oc2ccccc2c1C(=O)c1cc(Br)c(O)c(Br)c1 [BENZBROMARONE] .
1.4 g

***
If you can, please state the reported KIDNEY_R value of OCCOCCN1CCN(C(c2ccccc2)c2ccc(Cl)cc2)CC1 (stereo not drawn) [HYDROXYZINE] .
1.3 g

If you can, please state the reported KIDNEY_R value of CC[C@H]1[C@@H]2C[C@H]3[C@@H]4N(C)c5ccccc5[C@]45C[C@@H]([C@@H]2[C@H]5O)N3[C@@H]1O [AJMALINE] .
1.4 g

----------
Species: Rattus norvegicus
Assay: Open TG-GATES - Regimen: Single
Type: toxicity, organism-based, Sprague-Dawley
Design: regimen Single, gender Male, age 6 weeks
Settings: in vivo, po, 0 mg/kg, 9 h, tissue Plasma, route gavage, dose level Control
Consider the following compounds and their measured AST readings.

If you can, please state the reported AST value of O=NN(CCCl)C(=O)NC1CCCCC1 .
55.8 IU/L

***
If you can, please state the reported AST value of ClC(Cl)(Cl)Cl [CARBON TETRACHLORIDE] .
62.6 IU/L

If you can, please state the reported AST value of CN(C)C(=N)N=C(N)N .
69.6 IU/L

If you can, please state the reported AST value of CCC1(c2ccccc2)C(=O)NC(=O)NC1=O .
63.6 IU/L

----------
Species: Rattus norvegicus
Assay: Open TG-GATES - Regimen: Single
Format: toxicity, organism-based, Sprague-Dawley
Set-up: regimen Single, gender Male, age 6 weeks
Conditions: in vivo, po, 0 mg/kg, 6 h, tissue Kidney, route gavage, dose level Control
observed_property: KIDNEY_L
Reply with the number and its unit after it.

If you can, please state the reported KIDNEY_L value of CC(C)N(CCC(C(N)=O)(c1ccccc1)c1ccccn1)C(C)C (configuration not stated) [DISOPYRAMIDE] .
1 g

If you can, please state the reported KIDNEY_L value of ClC(Cl)(Cl)Cl [CARBON TETRACHLORIDE] .
0.9 g

If you can, please state the reported KIDNEY_L value of CN(C)CCC=C1c2ccccc2COc2ccccc21 [DOXEPIN] .
0.9 g

If you can, please state the reported KIDNEY_L value of CCc1oc2ccccc2c1C(=O)c1cc(Br)c(O)c(Br)c1 [BENZBROMARONE] .
1 g

If you can, please state the reported KIDNEY_L value of CN(C)C(=N)N=C(N)N [METFORMIN] .
0.9 g

If you can, please state the reported KIDNEY_L value of OCCOCCN1CCN(C(c2ccccc2)c2ccc(Cl)cc2)CC1 (configuration not stated) [HYDROXYZINE] .
0.9 g

If you can, please state the reported KIDNEY_L value of CC[C@H]1[C@@H]2C[C@H]3[C@@H]4N(C)c5ccccc5[C@]45C[C@@H]([C@@H]2[C@H]5O)N3[C@@H]1O [AJMALINE] .
0.9 g

----------
Species on record: Rattus norvegicus
Experiment: Open TG-GATES - Regimen: Single
Format: toxicity, organism-based, Sprague-Dawley
Parameters: regimen Single, gender Male, age 6 weeks
Conditions: in vivo, po, 0 mg/kg, 6 h, tissue Plasma, route gavage, dose level Control
observed_property: AST (IU/L)
Value expressed in IU/L; do not type the unit.

If you can, please state the reported AST value of CC1=C(CC(=O)O)c2cc(F)ccc2/C1=C\c1ccc([S+](C)[O-])cc1 (stereo not drawn) .
72

If you can, please state the reported AST value of OCCOCCN1CCN(C(c2ccccc2)c2ccc(Cl)cc2)CC1 (stereo not drawn) [HYDROXYZINE] .
68.8

***
If you can, please state the reported AST value of CCC1(c2ccccc2)C(=O)NC(=O)NC1=O .
70.2

----------
Species: Rattus norvegicus
Experiment: Open TG-GATES - Regimen: Single
Type: toxicity, organism-based, Sprague-Dawley
Set-up: regimen Single, gender Male, age 6 weeks
Settings: in vivo, po, 0 mg/kg, 3 h, tissue Blood, route gavage, dose level Control
Consider the following compounds and their measured Eos readings.
Value expressed in %; do not type the unit.

// solved cases for Eos follow
If you can, please state the reported Eos value of CCc1oc2ccccc2c1C(=O)c1cc(Br)c(O)c(Br)c1 [BENZBROMARONE] .
1

If you can, please state the reported Eos value of OCCOCCN1CCN(C(c2ccccc2)c2ccc(Cl)cc2)CC1 (stereo not drawn) [HYDROXYZINE] .
0.8

***
If you can, please state the reported Eos value of CC1=C(CC(=O)O)c2cc(F)ccc2/C1=C\c1ccc([S+](C)[O-])cc1 (stereo not drawn) .
0.8
